target: LATS1 (Homo sapiens (Human), UniProt O95835); assay: LATS1 biochemical assay (Table 1A, Compound Examples 1-290; method in the earlier part)
Sequence (O95835 whole entry, looked up): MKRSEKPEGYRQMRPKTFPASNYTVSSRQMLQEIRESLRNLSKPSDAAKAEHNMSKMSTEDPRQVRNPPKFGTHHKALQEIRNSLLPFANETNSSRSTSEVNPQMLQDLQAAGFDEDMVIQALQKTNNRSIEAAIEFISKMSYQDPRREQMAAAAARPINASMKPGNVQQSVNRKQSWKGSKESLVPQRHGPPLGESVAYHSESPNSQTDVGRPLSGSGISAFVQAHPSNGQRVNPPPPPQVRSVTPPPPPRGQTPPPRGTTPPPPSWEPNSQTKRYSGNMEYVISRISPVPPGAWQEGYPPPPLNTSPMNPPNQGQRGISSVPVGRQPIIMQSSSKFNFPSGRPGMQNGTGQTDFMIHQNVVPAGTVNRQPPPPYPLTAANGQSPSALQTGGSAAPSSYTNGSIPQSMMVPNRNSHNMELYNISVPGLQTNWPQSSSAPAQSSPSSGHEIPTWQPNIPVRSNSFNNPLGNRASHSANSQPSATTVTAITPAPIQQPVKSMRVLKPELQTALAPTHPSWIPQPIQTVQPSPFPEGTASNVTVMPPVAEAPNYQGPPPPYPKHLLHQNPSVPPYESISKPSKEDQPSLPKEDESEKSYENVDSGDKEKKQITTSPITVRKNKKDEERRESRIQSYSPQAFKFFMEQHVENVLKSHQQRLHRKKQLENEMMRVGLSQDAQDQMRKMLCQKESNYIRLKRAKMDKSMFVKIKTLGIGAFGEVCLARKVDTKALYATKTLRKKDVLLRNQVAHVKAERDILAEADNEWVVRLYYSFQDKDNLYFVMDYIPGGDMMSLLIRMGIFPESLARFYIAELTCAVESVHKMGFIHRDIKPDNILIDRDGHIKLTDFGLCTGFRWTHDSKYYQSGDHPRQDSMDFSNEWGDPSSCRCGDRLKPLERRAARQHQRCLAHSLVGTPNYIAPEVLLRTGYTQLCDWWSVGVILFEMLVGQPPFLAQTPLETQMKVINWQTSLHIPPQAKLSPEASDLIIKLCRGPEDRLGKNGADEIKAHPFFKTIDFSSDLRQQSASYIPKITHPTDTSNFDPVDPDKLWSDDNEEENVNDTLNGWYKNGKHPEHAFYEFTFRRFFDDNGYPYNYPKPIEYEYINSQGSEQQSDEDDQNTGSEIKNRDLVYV
Sequence (Q7L9L4 whole entry partner, looked up): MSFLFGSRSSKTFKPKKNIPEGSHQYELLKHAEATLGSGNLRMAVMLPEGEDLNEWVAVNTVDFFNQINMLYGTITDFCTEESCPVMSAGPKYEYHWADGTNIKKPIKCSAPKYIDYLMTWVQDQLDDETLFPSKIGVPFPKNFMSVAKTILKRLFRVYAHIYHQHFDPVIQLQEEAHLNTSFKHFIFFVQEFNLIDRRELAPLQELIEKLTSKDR
pIC50: −log10 of the molar value.

compoundStructure	relation	pIC50
CCn1cc(-c2nc(NCC(C)C)c3ccncc3n2)cn1	<	5.00
CC(C)(Nc1nc(-c2ccncc2)nc2cnccc12)C1CCCCC1	=	8.40
CCN(c1nc(-c2ccncc2)nc2cnccc12)C(C)C	=	9.00
OCC1(Nc2nc(-c3cn[nH]c3)nc3cnccc23)CCC1	=	6.72
CC1(Nc2nc(-c3ccncc3C#N)nc3cnccc23)CC1	=	8.40
Cc1cnccc1-c1nc(NC(C)(C)C(F)(F)F)c2ccncc2n1	=	8.22
CC(C)(CCS(C)(=O)=O)Nc1nc(-c2ccncc2Cl)nc2cnccc12	=	6.73

###

Listed here are compounds together with their documented pIC50.
target: Human LATS1 kinase domain protein (Homo sapiens (Human), UniProt O95835); experiment: LATS1 Biochemical Caliper Assay (Compound Examples 291-335); conditions: Caliper EZ Reader
Sequence (O95835 whole entry, looked up, the tested form may be a part): as the sequence (O95835 whole entry, looked up) above
Sequence (Q7L9L4 whole entry partner, looked up, the tested form may be a part): as the sequence (Q7L9L4 whole entry partner, looked up) above
pIC50: −log10 of the molar value.

compoundStructure	pIC50
CC(C)(CN)CNc1nc(-c2ccncc2)nc2cnccc12	9.10
C[C@](O)(CNc1cc(-c2ccncc2)nc2cnccc12)C(F)(F)F	6.90
CC1(Nc2cc(-c3ccncn3)nc3cnccc23)CCC1	8.72
CN(CCC(C)(C)N)c1nc(-c2ccncc2)nc2cnccc12	8.30

###

target: LATS1 (Homo sapiens (Human)); experiment: LATS1 biochemical assay (Table 1A, Compound Examples 1-290; method in the earlier part)
pIC50: −log10 of the molar value.
Response key: YES means pIC50 >= 7; NO means pIC50 < 7.

molecule	categoryLabel
FC(F)(F)C1CN(c2nc(-c3ccncc3)nc3cnccc23)CCN1 (stereo not drawn)	YES
CC(C)(O)CC(C)(C)Nc1nc(-c2ccncc2C#N)nc2cnccc12	YES
Cc1cccc(Nc2nc(-c3ccncc3)nc3cnccc23)c1	NO
c1ccc(Nc2nc(-c3ccncc3)nc3cnccc23)cc1	NO
CC(C)(COCCO)Nc1nc(-c2ccncc2)nc2cnccc12	YES
C[C@@H](Nc1nc(-c2ccnn2C)nc2cnccc12)c1ccccc1	NO
CC(C)(O)COCC(C)(C)Nc1cc(-c2ccncc2)nc2cnccc12	YES
CC1CCCC1Nc1nc(-c2ccncc2)nc2cnccc12 (single isomer, unassigned) [Example 17d]	YES

###

molecular target: UniProt:O95835; test: LATS1 biochemical assay (Table 1A, Compound Examples 1-290; method in the earlier part)
Listed here are compounds together with their documented IC50.

compoundStructure	targetOrTestSystem	resultUnit	IC50
COCC(C)(C)Nc1nc(-c2ccncc2)nc2cnccc12	UniProt:O95835	nM	2
Cc1cnccc1-c1nc(N(C)C(C)C)c2ccncc2n1	UniProt:O95835	nM	77
CC(C)(Nc1nc(-c2ccncc2Cl)nc2cnccc12)C(F)(F)F	UniProt:O95835	nM	3
CC(C)(Nc1nc(-c2ccncc2)nc2cnccc12)C(=O)O	UniProt:O95835	nM	95
CC(C)(CCc1ccccc1)Nc1nc(-c2ccncc2)nc2cnccc12	UniProt:O95835	nM	6
CC(C)(O)CC(C)(C)Nc1nc(-c2ccncc2)nc2cnccc12	UniProt:O95835	nM	1
CN(c1nc(-c2ccnn2C)nc2cnccc12)C1(C)CC1	UniProt:O95835	nM	98
Fc1ccccc1Nc1nc(-c2ccncc2)nc2cnccc12	UniProt:O95835	nM	13

###

Listed here are molecules together with their documented pIC50.
molecular target: LATS1 (Homo sapiens (Human), UniProt O95835); assay: LATS1 biochemical assay (Table 1A, Compound Examples 1-290; method in the earlier part)
pIC50: −log10 of the molar value.

molecule	pIC50
CC(C)(CN)Nc1nc(-c2ccncc2)nc2cnccc12 [Example 110]	8.70
Cn1cc(-c2nc(NC3(C)CC3)c3ccncc3n2)cn1 [Example 196]	< 5.60
CC1(Nc2nc(-c3ccn[nH]3)nc3cnccc23)CC1 [Example 176]	< 5.60

###

Listed here are molecules together with their documented pIC50.
target: LATS1 (Homo sapiens (Human), UniProt O95835); experiment: LATS1 biochemical assay (Table 1A, Compound Examples 1-290; method in the earlier part)
pIC50: −log10 of the molar value.

compoundStructure	relation	pIC50
Fc1cccc(Nc2nc(-c3ccncc3)nc3cnccc23)c1	<	5.84
CC1(Nc2nc(-c3cnoc3)nc3cnccc23)CC1	<	5.60
CNc1nc(-c2ccncc2)nc2cnccc12	=	7.59
COCC(C)(C)Nc1cc(-c2ccncc2)nc2cnccc12	=	7.64

All figures here come from patent US11458138B2.
